- tested on: human TAS1R2-WT/TAS1R3-R813K (Homo sapiens, UniProt Q7RTX0+Q8TE23, R813K)
- Construct: expressed in transfected cells; host or cells: HEK293T stably expressing Gα16gust44
- Sequence (Q8TE23 20-839): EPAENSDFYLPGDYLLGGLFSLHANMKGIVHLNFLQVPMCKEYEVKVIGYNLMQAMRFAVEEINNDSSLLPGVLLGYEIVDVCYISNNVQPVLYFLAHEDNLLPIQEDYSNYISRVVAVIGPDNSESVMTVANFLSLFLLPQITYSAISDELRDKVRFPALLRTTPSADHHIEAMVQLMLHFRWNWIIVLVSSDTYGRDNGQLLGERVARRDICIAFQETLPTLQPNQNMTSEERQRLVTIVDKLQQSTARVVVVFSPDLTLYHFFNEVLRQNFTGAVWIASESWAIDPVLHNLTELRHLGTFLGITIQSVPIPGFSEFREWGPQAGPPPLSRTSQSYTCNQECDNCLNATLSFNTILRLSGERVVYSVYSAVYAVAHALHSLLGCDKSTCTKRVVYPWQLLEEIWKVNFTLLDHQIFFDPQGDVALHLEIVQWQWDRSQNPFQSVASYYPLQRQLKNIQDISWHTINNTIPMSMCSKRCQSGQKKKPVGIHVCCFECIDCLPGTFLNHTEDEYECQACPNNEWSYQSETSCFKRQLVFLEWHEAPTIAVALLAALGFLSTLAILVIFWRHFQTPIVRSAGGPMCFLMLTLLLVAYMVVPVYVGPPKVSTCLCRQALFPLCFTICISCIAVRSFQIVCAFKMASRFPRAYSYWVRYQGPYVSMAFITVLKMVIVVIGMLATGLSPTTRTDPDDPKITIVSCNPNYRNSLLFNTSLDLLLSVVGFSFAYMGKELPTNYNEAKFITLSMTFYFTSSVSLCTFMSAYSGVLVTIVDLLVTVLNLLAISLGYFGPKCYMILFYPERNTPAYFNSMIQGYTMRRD
- Sequence (Q7RTX0 21-852 R813K): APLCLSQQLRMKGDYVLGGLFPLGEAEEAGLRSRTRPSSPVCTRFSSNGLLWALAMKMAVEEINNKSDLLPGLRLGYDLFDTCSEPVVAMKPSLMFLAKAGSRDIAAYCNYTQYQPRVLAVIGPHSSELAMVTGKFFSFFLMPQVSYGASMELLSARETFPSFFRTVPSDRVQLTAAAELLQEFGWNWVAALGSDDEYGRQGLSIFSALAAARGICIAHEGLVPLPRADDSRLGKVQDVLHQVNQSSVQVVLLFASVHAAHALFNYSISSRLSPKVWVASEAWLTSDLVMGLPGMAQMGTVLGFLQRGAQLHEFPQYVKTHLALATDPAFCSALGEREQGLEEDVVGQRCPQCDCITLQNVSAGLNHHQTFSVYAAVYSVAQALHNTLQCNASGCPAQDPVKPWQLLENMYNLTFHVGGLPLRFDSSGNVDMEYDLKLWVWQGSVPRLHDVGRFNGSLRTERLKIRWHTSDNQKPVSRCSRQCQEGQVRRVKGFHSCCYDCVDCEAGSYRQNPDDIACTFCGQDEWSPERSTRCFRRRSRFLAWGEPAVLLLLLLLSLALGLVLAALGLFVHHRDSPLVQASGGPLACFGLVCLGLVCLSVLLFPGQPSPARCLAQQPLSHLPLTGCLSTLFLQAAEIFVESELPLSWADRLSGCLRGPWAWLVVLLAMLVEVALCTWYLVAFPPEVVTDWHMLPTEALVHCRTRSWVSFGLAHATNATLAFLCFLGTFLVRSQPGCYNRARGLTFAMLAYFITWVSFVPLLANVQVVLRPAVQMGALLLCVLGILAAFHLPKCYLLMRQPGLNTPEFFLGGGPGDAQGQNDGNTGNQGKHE
- experimental protocol: Calcium mobilisation assay, TAS1R2-WT with TAS1R3 variant R813K
- Assay type: cell-based

{"columns": ["compound", "R1 = Variant EC50/WT EC50"],
 "data": [
  ["C=C1C[C@@]23CC[C@H]4[C@@](C)(CCC[C@@]4(C)C(=O)O[C@@H]4O[C@H](CO)[C@@H](O)[C@H](O[C@@H]5O[C@H](CO)[C@@H](O)[C@H](O)[C@H]5O)[C@H]4O[C@@H]4O[C@H](CO)[C@@H](O)[C@H](O)[C@H]4O)[C@@H]2CC[C@]1(O[C@@H]1O[C@H](CO)[C@@H](O)[C@H](O[C@@H]2O[C@H](CO)[C@@H](O)[C@H](O)[C@H]2O)[C@H]1O[C@@H]1O[C@H](CO)[C@@H](O)[C@H](O)[C@H]1O)C3 [Rebaudioside M, rebaudioside M]", 0.7]
]}
